- Tested on: P12-Ichikawa
- measurement.description: cell viability relative to DMSO control; higher = less cytotoxic
- assay.setup: RPMI 5 mM glucose + 10% dialyzed FBS; 48 h; 15.4 µM
Measured cell viability determines class: low value (below 70%), medium value (70% to below 90%), high value (90% or more)

Reference set, count: 5
compound	experimental.target	answer.label
O=c1oc2cc(O)ccc2s1	P12-Ichikawa	high value
C=C1CCC2[C@](C)(CO)C(O)CC[C@]2(C)C1C/C=C1/C(=O)OCC1O (stereo partly specified)	P12-Ichikawa	high value
N#CC1(c2cccc(C(=O)Nc3cc(Oc4ccc5nc(NC(=O)C6CC6)sc5n4)ccc3F)c2Cl)CC1	P12-Ichikawa	low value
CC(C)(C)NCC(O)c1ccc(O)c(CO)c1 (stereo unspecified)	P12-Ichikawa	medium value
CCOC(=O)c1c(CSc2ccccc2)n(C)c2cc(Br)c(O)c(CN(C)C)c12	P12-Ichikawa	high value

Query: Category lookup for the compound `COc1cccc(N(C)C(=S)Oc2ccc3c(c2)CCCC3)n1`
Result: high value

Query: Lab log: `c1ccc2c(CN3CCNCC3)cccc2c1` — assign cell viability category
Result: high value

Query: Lab log: `CC(C)(Sc1cc(C(C)(C)C)c(O)c(C(C)(C)C)c1)Sc1cc(C(C)(C)C)c(O)c(C(C)(C)C)c1` — assign cell viability category
Result: medium value

Query: Where would `O=C1c2ccccc2-c2n[nH]c3cccc1c23` land among the classes by reported cell viability?
Result: low value

Query: Please let me know in which category the item `CC(=O)N(O)CCCCCNC(=O)CCC(=O)N(O)CCCCCNC(=O)CCC(=O)N(O)CCCCCN.C[S+](=O)([O-])O` belongs.
Result: low value

Query: Class (by measured cell viability) for `Cc1ccc(C(=O)Nc2ccc([S+](=O)([O-])O)c3cc([S+](=O)([O-])O)cc([S+](=O)([O-])O)c23)cc1NC(=O)c1cccc(NC(=O)Nc2cccc(C(=O)Nc3cc(C(=O)Nc4ccc([S+](=O)([O-])O)c5cc([S+](=O)([O-])O)cc([S+](=O)([O-])O)c45)ccc3C)c2)c1`
Result: low value

Query: Please indicate the class for `CCC(=O)N1CCN(CC1)C2=C(C=C(C=C2)N3C(=O)\C=C/C4=C3C5=CC(=CC=C5N=C4)C6=CN=C7C=CC=CC7=C6)C(F)(F)F` based on its cell viability.
Result: low value

Query: Class for `COC(=O)CCC1=C(C)C2=CC3=NC(=CC4=C(C)C(=C([NH]4)C=C\5N=C(C=C1[NH]2)\C(=C5C)CCC(O)=O)C=C)\C6=C\C=C(/[C@@H](C(=O)OC)[C@@]36C)C(=O)OC` ?
Result: medium value

====

Parameter: cell viability. Scope: all listed entries.
- Tested on: P12-Ichikawa
- measurement.description: cell viability relative to DMSO control; higher = less cytotoxic
- assay.setup: HPLM + 10% dialyzed FBS; 48 h; 0.00702 µM
State just the number; it will be interpreted in %.

compound	cell viability / %
COc1cc2c(cc1OC)CN(CCc1ccc(NC(=O)c3cccc4c(=O)c5cccc(OC)c5[nH]c34)cc1)CC2	107
CC(C)(C)NCC(O)c1ccc(O)c(CO)c1 (stereo unspecified)	114
COCCCC/C(=N\OCCN)c1ccc(C(F)(F)F)cc1	91.2

Query: Quick one: cell viability for `Nc1ncnc2nc(-c3ccc(N4CCOCC4)nc3)cc(-c3cccc(Br)c3)c12` ?
Result: 117

Query: Consider the compound shown here: `COc1ccc(/C=C/C(=O)Nc2ccccc2C(=O)O)cc1OC` What is its recorded cell viability?
Result: 108

Query: Looking for the measured cell viability of `CC1(C)[C@@H](O)CC[C@@]2(C)[C@H]1CC[C@]3(C)[C@@H]2C(=O)\C=C/4[C@@H]5C[C@](C)(CC[C@]5(C)CC[C@@]34C)C(O)=O` , can you help?
Result: 117

Query: Please give the measured cell viability for this compound: `O=C(Nc1ccccc1)Nc1ccc(-c2ccc(C(=O)[C@@H]3CCC[C@H]3C(=O)O)cc2)cc1`
Result: 117

Query: Entry `Nc1nccc(-c2ccc3noc(-c4ccc(Cl)cc4)c3c2)n1` : reported cell viability = ?
Result: 131
